Each recorded value in this set is attributed to the array DNA melting data of Ke et al. (doi:10.1101/2024.01.08.574731).

Experiment: folding enthalpy; higher = less favourable; fluorescence melt of hairpins on a sequencing array, two-state fit
Settings: sodium 0.088 M
Please go through the items and note down their folding enthalpy.
Numbers only, in kcal/mol.

Worked cases, answers included:
| SEQUENCE_TEXT | REPORTED_MEASUREMENT |
| --- | --- |
| GATCTAAAAGTAGATC ((((((....)))))) | -17.5 |
| GCAGGAGGAAACTCCCGC ((.((((....)))).)) | -24.1 |
| GTGCCTGGAAACGGGTAC ((.((.(....).)).)) | -18.6 |
| GGGTAAGGAAACCTACCC (((((.(....).))))) | -30.6 |
| GATCTGTCGACAGATC ((((((....)))))) | -49.6 |

Go through the items and report each one's folding enthalpy.
1. GTCGGATCGAAAGATGAC (((..(((....))))))
2. GGTTGCGGAAACGCAATC (.(((((....))))).)
3. GCCGACGAAAGTCCCGGC ((((((....)))..)))
4. GACGGTGGAAACGCCGTC (((((.(....).)))))
5. GATCATCAAATGATC ((((((...))))))
6. GTAGGCCGAAAGGCATAC (((.(((....))).)))
7. GATCATCTGATGATC ((((((...))))))

-- reply
-16.7
-28.9
-20.9
-37.7
-25.1
-33.2
-37.5

----------
Please go through the items and note down their Tm.
Test: melting temperature; fluorescence melt of hairpins on a sequencing array, two-state fit, raised by 9.35 °C to match UV melts
Details: sodium 0.088 M
Give bare numbers, in °C.

| SEQUENCE_TEXT | RESULT_UNITS | REPORTED_MEASUREMENT |
| --- | --- | --- |
| GGGACCGGAAACGATCCC ((((.((....)).)))) | °C | 50.8 |
| GGATAATCGAAAGATTCC (((..(((....)))))) | °C | 27.6 |
| GAAAAGGGAAACCCTTTC ((((.((....)).)))) | °C | 32.6 |
| GCATACGAAAGTAAGTGC ((((((....)))..))) | °C | 34.5 |
| GTGGTCGAAAGACCTCAC ((((((....)))..))) | °C | 38 |

Go through the items and report each one's Tm.
1. GCGGAGTCGAAAGACCGC (((..(((....))))))
2. GATATGCGAAAGCAAATC (((.(((....))).)))

-- reply
1: 53.7; 2: 40.1

Go through the items and report each one's Tm.
1. GTACCGCGAAAGCGCTAC (((.(((....))).)))
2. GGCCGTCGAAAGACAGCC (((.(((....))).)))
3. GCCGTCGGAAACGATGGC (((.(((....))).)))
4. GTACTGCGAAAGCACTAC (((.(((....))).)))
5. GGACTCTCGAAAGAGTCC (((..(((....))))))

-- reply
1. 35.9
2. 58.4
3. 65.5
4. 28.8
5. 60.9

----------
Assay: melting temperature; fluorescence melt of hairpins on a sequencing array, two-state fit, raised by 9.35 °C to match UV melts
Conditions: sodium 0.088 M
Please go through the items and note down their Tm.
Answers are plain numbers, in °C.

| SEQUENCE_TEXT | Tm, °C |
| --- | --- |
| GCGAGGGGAAACCTTCGC ((((.((....)).)))) | 56.3 |
| GAACGCGGAAACGTGTTC ((((.((....)).)))) | 56 |
| GCACACGAAAGTGCATGC ((((((....)))..))) | 42.1 |
| GACAAGGGAAACTTTGTC (((((.(....).))))) | 36.9 |
| GATCTGGTGTCAGATC ((((((....)))))) | 49.8 |

Go through the items and report each one's Tm.
1. GGACAACCGAAAGGTTCC (((..(((....))))))
2. GTCCTCGAAAGAGGGGAC ((((((....)))..)))
3. GATCTAACCCTAGATC ((((((....))))))
4. GCTAGAGGAAACTCCAGC (((.(((....))).)))
5. GGAGCTCGAAAGAGTTCC (((.(((....))).)))

-- reply
1: 29.4; 2: 43.6; 3: 37.5; 4: 34.8; 5: 57.4

Go through the items and report each one's Tm.
1. GCGAGCAATCGC ((((....))))
2. GTCTGCGAAAGCAAGGAC ((((((....)))..)))
3. GATATACGAAAGTAGATC (((.(((....))).)))
4. GATCCTTTTAGGATC ((((((...))))))
5. GATCGCACGAAAGTGATC (((..(((....))))))
6. GGATACGGAAACGCATCC ((((.((....)).))))
7. GCGTTTACACGC ((((....))))
8. GGCGTCGAAAGACGAGCC ((((((....)))..)))

-- reply
[62.2, 43.2, 44.1, 58.9, 36.4, 45.5, 54.3, 54]

Go through the items and report each one's Tm.
1. GCTTGGCGAAAGCGCAGC (((..((....))..)))
2. GACTGCGAAAGCACAGTC ((((((....)))..)))
3. GCCCAGCGAAAGCAGTGC ((.(.((....)).).))
4. GCCATCTCGAAAGAGGGC (((..(((....))))))
5. GCTCGCGAAAGCGGAGC ((((((....))).)))
6. GATCTTGGCAAAGATC ((((((....))))))
7. GATCCGCTAACGGATC ((((((....))))))

-- reply
[43.5, 44.5, 34.7, 48.9, 67.9, 53.2, 58.8]

----------
Assay: melting temperature; fluorescence melt of hairpins on a sequencing array, two-state fit, raised by 9.35 °C to match UV melts
Conditions: sodium 0.088 M
Please enter Satisfied where Tm is greater than or equal to 50 °C, and Not satisfied where it is lower.

Solved entries (count: 5):
| SEQUENCE_TEXT | CLASSIFICATION |
| --- | --- |
| GCCCGGCGAAAGCAGAGC ((.(.((....)).).)) | Not satisfied |
| GAAGAGGGAAACCTCTTC (((((((....))))))) | Satisfied |
| GTGGCCGGAAACGGCTGC (..((((....))))..) | Satisfied |
| GATCAGGGTCCTGATC ((((((....)))))) | Satisfied |
| GATCTCCTGAGAGATC ((((((....)))))) | Satisfied |

-- ask Reported Tm reaches at least 50 °C for GGATGAGGAAACTCATTC (.(((((....))))).) ?
-- reply Not satisfied

-- ask Reported Tm reaches at least 50 °C for GCTAACGAAAGTTGCAGC ((((((....)))..))) ?
-- reply Not satisfied

-- ask Reported Tm reaches at least 50 °C for GATCTGTACGCAGATC ((((((....)))))) ?
-- reply Satisfied

-- ask Reported Tm reaches at least 50 °C for GCCCCTGGAAACAGAGGC (((.(((....))).))) ?
-- reply Not satisfied

-- ask Reported Tm reaches at least 50 °C for GGGGAGGCGAAAGCCCCC (((..(((....)))))) ?
-- reply Satisfied

-- ask Reported Tm reaches at least 50 °C for GTTGCACGAAAGTGGAAC (((.(((....))).))) ?
-- reply Satisfied

----------
Assay: melting temperature; fluorescence melt of hairpins on a sequencing array, two-state fit, raised by 9.35 °C to match UV melts
Details: sodium 0.088 M
Please assign 0.0 whenever Tm is at or above 50 °C, and 1.0 whenever it is below.

-- ask Determine if GGATTGAAAAATCC (((((....))))) shows Tm strictly lower than 50 °C.
-- reply 1.0

----------
Test: melting temperature; fluorescence melt of hairpins on a sequencing array, two-state fit, raised by 9.35 °C to match UV melts
Details: sodium 0.088 M
Please assign Criterion not met whenever Tm is at or above 50 °C, and Criterion met whenever it is below.

Solved entries (count: 6):
| SEQUENCE_TEXT | CLASSIFICATION |
| --- | --- |
| GCGTGGTGACGC ((((....)))) | Criterion not met |
| GCTACCGAAAGGTCTAGC ((((((....)))..))) | Criterion met |
| GCTATGCGAAAGCTTGGC ((.(.((....)).).)) | Criterion met |
| GCACCCACGAAAGTGTGC (((..(((....)))))) | Criterion met |
| CGCCTCGGAAACGAGCG (((.(((....)))))) | Criterion not met |
| GATCCGAGCTCGGATC ((((((....)))))) | Criterion not met |

Now look at this entry.
-- ask Determine if GGATCACCGAAAGGTTCC (((..(((....)))))) shows Tm strictly lower than 50 °C.
-- reply Criterion met
